- target-or-system: SARS-CoV-2 Wuhan-1 full-length Spike protein on pseudovirus (SARS-CoV-2, UniProt P0DTC2 14-1273)
- assay-remarks: cell-based or functional assay
In this section, each of the binders is paired with its reported Pseudovirus Neturalization.
readout-kind: Pseudovirus Neturalization (µg/mL)

>  <binder>
AB-009620 (antibody, V domains shown) VH: QITLKESGPTLVKPTQTLTLTCTFSGFSLSTSGVGVGWIRQPPGKALEWLALIYWDDDKRYSPSLKSRLTITKDTSKNQVVLTMTNMDPVDTATYYCAHHEVATVFDYWGQGTLVTVSS VL: QSALTQPASVSGSPGQSITISCTGTSSDVGAYNYVSWYQQHPGKAPKLMIYEVSNRPSGVSNRFSGSKSGNTASLTISGLQAEDEADYYCSSYTSSSTVFGGGTKLTVL

>  <comparator>
=

>  <endpoint-value>
1.04

$$$$
>  <binder>
AB-009271 (antibody, V domains shown) VH: EVQLVESGGGLIQPGGSLRLSCAASGFIVSSNYMSWVRQAPGKGLEWVSVIYSGGSTYYADSVKGRFTISRDNSKNTLYLQMNSLRAEDTAVYYCARDYGDFYFDYWGQGTLVTVSS VL: EIVMTQSPATLSVSPGERATLSCRASQSVSSNLAWYQQKPGQAPRLLIYGASTRATGIPARFSGSGSGTEFTLTISSLQSEDFAVYYCQQYYNWPRTFGQGTKVEIK

>  <comparator>
=

>  <endpoint-value>
0.058

$$$$
>  <binder>
AB-009346 (antibody, V domains shown) VH: EVQLVESGGGVVRPGGSLRLSCAASGFTFDDYGMSWVRQAPGKGLEWVSGINWNGGSTGYADSVKGRFTISRDNAKNSLYLQMNSLRAEDTALYYCARWPLLGISGYYHYYMDVWGKGTTVTVSS VL: QSALTQPRSVSGSPGQSVTISCTGTSSDVGGYNYVSWYQQHPGKAPKLMIYDVSKRPSGVPDRFSGSKSGNTASLTISGLQAEDEADYYCCSYAGSYTLLFGGGTKLIVL

>  <comparator>
=

>  <endpoint-value>
0.774

$$$$
>  <binder>
AB-009281 (antibody, V domains shown) VH: EVQLVETGGGLIQPGGSLRLSCAASGFTVSSNYMSWVRQAPGKGLEWVSVIYSGGSTYYADSVKGRFTISRDNSKNTLYLQMNSLRAEDTAVYYCARDLYYYGMDVWGQGTTVTVSS VL: DIQLTQSPSFLSASVGDRVTITCRASQGISSYLAWYQQKPGKAPKLLIYAASTLQSGVPSRFSGSGSGTEFTLTISSLQPEDFATYYCQQLNSYPTFGQGTKVEIK

>  <comparator>
=

>  <endpoint-value>
0.215

$$$$
>  <binder>
AB-009769 (antibody, V domains shown) VH: EVQLVESGGGLVQPGGSLRLSCAASGFTFSSYWMSWVRQAPGKGLEWVANIKQDGSEKYYVDSVKGRFTISRDNAKNSLYLQMNSLRAEDTAVYYCARSPEVLWFGDPVLDNWFDPWGQGTLVTVSS VL: SYELTQPPSVSVSPGQTARITCSGDALPKQYAYWYQQKPGQAPVLVIYKDSERPSGIPERFSGSSSGTTVTLTISGVQAEDEADYYCQSADSSGTYPVVFGGGTKLTVL

>  <comparator>
>

>  <endpoint-value>
50

$$$$
>  <binder>
AB-009734 (antibody, V domains shown) VH: QVHLVQSGAEVKTPGASVRVSCKASGYTFTSHYMHWVRQAPGQGLEWMGLINPSGSGTAYPQHFQGRVTMTRDTSTTTDYMDLSSLRSEDTAMYFCARMERSGAFDLWGQGTMVTVSS VL: EIVLTQSPGTLSLSPGERATLSCRASQTISSRYLAWYYQKPGQAPRLLIQGSSIRATGIPDRFSGSGSGTDFTLTISRLEPEDFAVYYCQHYGSSPPMYTFGQGTKLEIK

>  <comparator>
=

>  <endpoint-value>
42.4

$$$$
